The reported measurements were obtained from patent US20230122344A1.

Target: Human M4 (Homo sapiens)
Sequence (P08173 1-479): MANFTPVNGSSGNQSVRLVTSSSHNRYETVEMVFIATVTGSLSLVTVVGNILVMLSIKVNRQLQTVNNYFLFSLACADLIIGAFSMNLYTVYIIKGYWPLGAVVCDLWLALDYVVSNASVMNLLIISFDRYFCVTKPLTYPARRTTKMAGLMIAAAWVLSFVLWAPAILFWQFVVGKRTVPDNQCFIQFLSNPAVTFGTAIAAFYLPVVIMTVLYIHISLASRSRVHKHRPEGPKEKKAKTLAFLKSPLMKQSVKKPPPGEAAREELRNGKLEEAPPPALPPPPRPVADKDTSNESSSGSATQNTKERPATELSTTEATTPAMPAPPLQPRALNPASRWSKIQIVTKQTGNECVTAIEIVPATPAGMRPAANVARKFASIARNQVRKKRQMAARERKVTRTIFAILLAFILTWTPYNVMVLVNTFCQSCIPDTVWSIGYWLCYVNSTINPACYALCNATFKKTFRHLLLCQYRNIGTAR
Assay: mAChR M4 cell-based functional assay (calcium flux, antagonism of EC80 acetylcholine response)
Conditions: M4/Gqi5/CHO-K1 cells; decrease of response elicited by EC80 acetylcholine
Measured parameter: IC50 (nM)

Some compounds with known IC50 results, for comparison:
Compound: [2H]C(C)(c1ccccn1)N1C[C@H]2C[C@H](Nc3cc(C(F)F)c(-c4cc(F)cc(F)c4F)nn3)C[C@H]2C1 (some centres unmarked)
Subject of test: Human M4 (Homo sapiens)
Unit abbreviation: nM
IC50: 35
--
Compound: [2H]C([2H])(C1CCOCC1)N1C[C@H]2C[C@H](Nc3cc(C4(C(F)(F)F)CC4)c(-c4cc(F)cc(F)c4F)nn3)C[C@H]2C1
Subject of test: Human M4 (Homo sapiens)
Unit abbreviation: nM
IC50: 17.9
--
Compound: [2H]C([2H])(C1CCOCC1)N1C[C@H]2C[C@H](Nc3nnc(N4CCC(F)(F)CC4)cc3C3CC3)C[C@H]2C1
Subject of test: Human M4 (Homo sapiens)
Unit abbreviation: nM
IC50: 186
--
Compound: Cc1cc(N[C@H]2C[C@@H]3CN(CC4CCOCC4)C[C@@H]3C2)nnc1-c1cc(F)ccc1F
Subject of test: Human M4 (Homo sapiens)
Unit abbreviation: nM
IC50: 0.14
--
Compound: Cc1c(-c2ccccc2F)nnc(N[C@H]2C[C@@H]3CN(CC4CCOCC4)C[C@@H]3C2)c1C#N
Subject of test: Human M4 (Homo sapiens)
Unit abbreviation: nM
IC50: 0.97

[1] [2H]C([2H])(C1CCOCC1)N1C[C@H]2C[C@H](Nc3nnc(-c4ccc5nn(C)cc5c4C)cc3C)C[C@H]2C1
[2] Fc1cc(F)c(F)c(-c2nnc(N[C@H]3C[C@@H]4CN(CCC5CCOCC5)C[C@@H]4C3)cc2C(F)F)c1
Record comparison, field IC50: mark the lower of 1 and 2 . // output: label of the selected item
1

[I] Fc1cc(F)c(F)c(-c2nnc(N[C@H]3C[C@@H]4CN(CC5CCCCC5)C[C@@H]4C3)cc2C(F)F)c1
[II] [2H]C([2H])(C1CCOCC1)N1C[C@H]2C[C@H](Nc3nnc(-c4cc(F)ccc4F)c(C)c3C)C[C@H]2C1
[III] [2H]C([2H])(C1CCOCC1)N1C[C@H]2C[C@H](Nc3nnc(-c4cc(F)cc(F)c4F)cc3C(C)(F)F)C[C@H]2C1
[IV] [2H]C([2H])(C1CCOCC1)N1C[C@H]2C[C@H](Nc3nnc(-c4cc(F)ccc4C)c(C)c3C(F)(F)F)C[C@H]2C1
In this exercise, place the 4 compounds in ascending sequence of their recorded IC50. Labels, ranked as asked.
II, I, III, IV
(II: 0.66 nM, I: 19.1 nM, III: 54.4 nM, IV: 159 nM)
